- assayed-target: M. tuberculosis DNA gyrase (Mycobacterium tuberculosis)
- Construct: purchased Inspiralis (Norwich, UK)
- protocol-description: biochemical
- Format: biochemical
- run-conditions: average of Assay 1 and Assay 2; read-out: M. tuberculosis gyrase supercoiling IC50, Average
quantity: IC50 (nM)
Respond numerically; units are nM and should not be typed.

Input: Find the measured IC50 of COc1ccc2nccc(C(O)CC3CCC(NCc4cc(F)c(Br)c(F)c4)CC3)c2n1 (stereo not shown) with M. tuberculosis DNA gyrase (Mycobacterium tuberculosis) as test system.
Output: 96

---

- Test system: M. tuberculosis H37Rv
- protocol-description: microbe, parasite or virus in culture
- Type: cell-based
- run-conditions: Mycobacterium tuberculosis, reference wild-type strain, 90% inhibition of bacteria growth, mean of two independent measurements ± SD, read-out: Antituberculosis activity M. tuberculosis H37Rv IC90
Below, each entry is listed with its recorded IC90.
Respond numerically; units are µM and should not be typed.

Example results:
[[record]]
compound = "COc1ccc2nccc(CCN3CCC(NCc4ccc(Br)c(F)c4)CC3)c2n1"
quantity = "IC90"
unit_text = "µM"
result_number = 0.2

[[record]]
compound = "COc1ccc2nccc(CCN3CCC(NCc4ccc(I)c(F)c4)CC3)c2n1"
quantity = "IC90"
unit_text = "µM"
result_number = 0.27

[[record]]
compound = "COc1ccc2nccc(CCN3CCC(NCc4cc(F)c(Cl)c(F)c4)CC3)c2n1"
quantity = "IC90"
unit_text = "µM"
result_number = 0.092

[[record]]
compound = "COc1ccc2nccc(CCN3CCC(NCc4cc(F)c(Br)c(F)c4)CC3)c2n1"
quantity = "IC90"
unit_text = "µM"
result_number = 0.062


Input: Give IC90 for COc1ccc2nccc(C(O)CC3CCC(NCc4cc(F)c(Br)c(F)c4)CC3)c2n1 (centres unmarked)
Output: 0.28

---

Below, each entry is listed with its recorded inhibition at 0.1 µM.
- assayed-target: M. tuberculosis DNA gyrase (Mycobacterium tuberculosis)
- Construct: purchased Inspiralis (Norwich, UK)
- protocol-description: biochemical
- run-conditions: M. tuberculosis DNA gyrase supercoiling, 100 nM compound
Respond numerically; units are % and should not be typed.

Example results:
[[record]]
molecule = "COc1ccc2nccc(OCC3CCC(NCc4ccc(Cl)cc4)CC3)c2n1 (stereo not drawn)"
result_number = 4.7

[[record]]
molecule = "COc1ccc2nccc(OCC3CCC(NCc4cc(F)c(Cl)c(F)c4)CO3)c2n1 (stereo not drawn)"
result_number = 4.3

[[record]]
molecule = "COc1ccc2nccc(OCC3CCC(NCc4ccc(I)cc4)CC3)c2n1 (stereo not drawn)"
result_number = 9.68


Kindly consider the entry below.
Input: Give inhibition at 0.1 µM for COc1ccc2nccc(CCN3CCC(NCc4cnn(C(C)C)c4)CC3)c2n1
Output: 7.45

---

Below, each entry is listed with its recorded pIC50.
- assayed-target: M. tuberculosis DNA gyrase (Mycobacterium tuberculosis)
- Construct: purchased Inspiralis (Norwich, UK)
- protocol-description: biochemical
- Assay type: biochemical
- run-conditions: M. tuberculosis gyrase supercoiling IC50, Assay 1, Assay 1 (single determination)
Entry type: numeric. Quantity: pIC50, the -log10 of concentration in molar units.

[[record]]
molecule = "COc1ccc2nccc(CCN3CCC(NCc4ccc(I)c(F)c4)CC3)c2n1 [Compound 2]"
assayed_target = "M. tuberculosis DNA gyrase (Mycobacterium tuberculosis)"
result_number = 6.81


Kindly consider the entry below.
Input: Give pIC50 for COc1ccc2nccc(CCN3CCC(NCc4ccc(Br)c(F)c4)CC3)c2n1 [Compound 1]
Output: 6.40

---

- assayed-target: M. tuberculosis DNA gyrase (Mycobacterium tuberculosis)
- Construct: purchased Inspiralis (Norwich, UK)
- protocol-description: biochemical
- Type: biochemical
- run-conditions: M. tuberculosis gyrase supercoiling IC50, Assay 2, Assay 2 (single determination)
Below, each entry is listed with its recorded pIC50.
Entry type: numeric. Quantity: pIC50, the -log10 of concentration in molar units.

[[record]]
compound = "COc1ccc2nccc(CCN3CCC(NCc4ccc(Br)c(F)c4)CC3)c2n1 [Compound 1]"
result_number = 6.48


Kindly consider the entry below.
Input: Find the measured pIC50 of COc1ccc2nccc(CCN3CCC(NCc4ccc(I)c(F)c4)CC3)c2n1 [Compound 2] with M. tuberculosis DNA gyrase (Mycobacterium tuberculosis) as test system.
Output: 7.25

---

Below, each entry is listed with its recorded IC50.
- assayed-target: M. tuberculosis DNA gyrase (Mycobacterium tuberculosis, UniProt P9WG47)
- Construct: purchased Inspiralis (Norwich, UK)
- Sequence (P9WG45 whole entry): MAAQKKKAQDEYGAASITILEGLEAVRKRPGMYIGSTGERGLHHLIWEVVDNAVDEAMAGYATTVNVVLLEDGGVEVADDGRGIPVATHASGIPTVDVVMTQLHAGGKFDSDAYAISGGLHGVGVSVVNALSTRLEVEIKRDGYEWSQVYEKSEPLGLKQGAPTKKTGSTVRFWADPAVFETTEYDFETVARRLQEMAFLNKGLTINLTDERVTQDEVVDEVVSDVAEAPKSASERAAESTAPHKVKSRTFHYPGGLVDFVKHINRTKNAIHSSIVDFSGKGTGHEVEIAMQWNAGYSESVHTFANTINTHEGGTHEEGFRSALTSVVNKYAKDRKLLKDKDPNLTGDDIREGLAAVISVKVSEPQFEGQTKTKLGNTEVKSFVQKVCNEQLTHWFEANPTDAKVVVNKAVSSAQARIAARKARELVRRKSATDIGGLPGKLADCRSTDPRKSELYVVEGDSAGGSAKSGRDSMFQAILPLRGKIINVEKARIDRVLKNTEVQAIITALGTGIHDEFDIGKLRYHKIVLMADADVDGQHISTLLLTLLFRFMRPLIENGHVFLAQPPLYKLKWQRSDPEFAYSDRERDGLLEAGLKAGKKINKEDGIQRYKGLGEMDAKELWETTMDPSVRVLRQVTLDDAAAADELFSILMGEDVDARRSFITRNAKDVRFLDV
- Sequence (P9WG47 whole entry): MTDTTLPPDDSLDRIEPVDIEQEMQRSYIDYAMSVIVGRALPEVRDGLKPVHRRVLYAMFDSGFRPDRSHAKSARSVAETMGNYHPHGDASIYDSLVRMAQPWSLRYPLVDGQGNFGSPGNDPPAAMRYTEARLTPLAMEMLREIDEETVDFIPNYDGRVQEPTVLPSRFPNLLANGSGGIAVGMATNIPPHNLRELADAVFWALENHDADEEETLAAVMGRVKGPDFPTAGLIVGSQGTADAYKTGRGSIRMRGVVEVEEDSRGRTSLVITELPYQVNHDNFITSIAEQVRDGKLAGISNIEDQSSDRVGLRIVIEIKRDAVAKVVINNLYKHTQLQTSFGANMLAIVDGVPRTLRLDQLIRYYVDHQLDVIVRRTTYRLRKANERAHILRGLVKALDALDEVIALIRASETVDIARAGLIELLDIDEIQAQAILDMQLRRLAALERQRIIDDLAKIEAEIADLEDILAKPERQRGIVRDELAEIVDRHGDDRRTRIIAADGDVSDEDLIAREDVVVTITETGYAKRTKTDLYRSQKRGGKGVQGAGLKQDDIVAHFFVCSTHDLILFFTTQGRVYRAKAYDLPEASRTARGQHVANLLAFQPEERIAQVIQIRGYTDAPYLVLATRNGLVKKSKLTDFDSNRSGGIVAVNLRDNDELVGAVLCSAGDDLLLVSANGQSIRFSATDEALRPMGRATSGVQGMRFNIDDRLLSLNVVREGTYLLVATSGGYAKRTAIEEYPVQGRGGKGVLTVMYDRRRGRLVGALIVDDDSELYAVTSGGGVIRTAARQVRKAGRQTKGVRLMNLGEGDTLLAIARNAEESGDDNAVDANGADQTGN
- protocol-description: biochemical
- Format: biochemical
- run-conditions: Assay 2 (single determination); read-out: M. tuberculosis gyrase supercoiling IC50, Assay 2
Respond numerically; units are µM and should not be typed.

[[record]]
molecule = "COc1ccc2nccc(C(O)CC3CCC(NCc4cc(F)c(Br)c(F)c4)CC3)c2n1 (stereo not drawn) [Compound 5]"
unit_text = "µM"
result_number = 0.096

[[record]]
molecule = "COc1ccc2nccc(CCN3CCC(NCc4cc(F)c(Cl)c(F)c4)CC3)c2n1 [Compound 3]"
unit_text = "µM"
result_number = 0.091


Kindly consider the entry below.
Input: Find the measured IC50 of COc1ccc2nccc(CCN3CCC(NCc4cc(F)c(Br)c(F)c4)CC3)c2n1 [Compound 4] with M. tuberculosis DNA gyrase (Mycobacterium tuberculosis, UniProt P9WG47) as test system.
Output: 0.069

---

- assayed-target: M. tuberculosis DNA gyrase (Mycobacterium tuberculosis, UniProt P9WG47)
- Construct: purchased Inspiralis (Norwich, UK)
- protocol-description: biochemical
- Assay type: biochemical
- run-conditions: supercoiling assay; mean of two independent measurements ± SD; read-out: Enzyme inhibition M. tuberculosis DNA gyrase IC50
Below, each entry is listed with its recorded IC50.
Respond numerically; units are µM and should not be typed.

Example results:
[[record]]
compound = "COc1ccc2nccc(C(O)CC3CCC(NCc4cc(F)c(Br)c(F)c4)CC3)c2n1 (centres unmarked)"
unit_text = "µM"
result_number = 0.096

[[record]]
compound = "COc1ccc2nccc(CCN3CCC(NCc4ccc(Br)c(F)c4)CC3)c2n1"
unit_text = "µM"
result_number = 0.363

[[record]]
compound = "COc1ccc2nccc(CCN3CCC(NCc4ccc(I)c(F)c4)CC3)c2n1"
unit_text = "µM"
result_number = 0.105


Input: Give IC50 for COc1ccc2nccc(CCN3CCC(NCc4cc(F)c(Cl)c(F)c4)CC3)c2n1
Output: 0.092

Input: Give IC50 for COc1ccc2nccc(CCN3CCC(NCc4cc(F)c(Br)c(F)c4)CC3)c2n1
Output: 0.079

---

- assayed-target: hERG (Homo sapiens)
- Sequence (Q12809 whole entry): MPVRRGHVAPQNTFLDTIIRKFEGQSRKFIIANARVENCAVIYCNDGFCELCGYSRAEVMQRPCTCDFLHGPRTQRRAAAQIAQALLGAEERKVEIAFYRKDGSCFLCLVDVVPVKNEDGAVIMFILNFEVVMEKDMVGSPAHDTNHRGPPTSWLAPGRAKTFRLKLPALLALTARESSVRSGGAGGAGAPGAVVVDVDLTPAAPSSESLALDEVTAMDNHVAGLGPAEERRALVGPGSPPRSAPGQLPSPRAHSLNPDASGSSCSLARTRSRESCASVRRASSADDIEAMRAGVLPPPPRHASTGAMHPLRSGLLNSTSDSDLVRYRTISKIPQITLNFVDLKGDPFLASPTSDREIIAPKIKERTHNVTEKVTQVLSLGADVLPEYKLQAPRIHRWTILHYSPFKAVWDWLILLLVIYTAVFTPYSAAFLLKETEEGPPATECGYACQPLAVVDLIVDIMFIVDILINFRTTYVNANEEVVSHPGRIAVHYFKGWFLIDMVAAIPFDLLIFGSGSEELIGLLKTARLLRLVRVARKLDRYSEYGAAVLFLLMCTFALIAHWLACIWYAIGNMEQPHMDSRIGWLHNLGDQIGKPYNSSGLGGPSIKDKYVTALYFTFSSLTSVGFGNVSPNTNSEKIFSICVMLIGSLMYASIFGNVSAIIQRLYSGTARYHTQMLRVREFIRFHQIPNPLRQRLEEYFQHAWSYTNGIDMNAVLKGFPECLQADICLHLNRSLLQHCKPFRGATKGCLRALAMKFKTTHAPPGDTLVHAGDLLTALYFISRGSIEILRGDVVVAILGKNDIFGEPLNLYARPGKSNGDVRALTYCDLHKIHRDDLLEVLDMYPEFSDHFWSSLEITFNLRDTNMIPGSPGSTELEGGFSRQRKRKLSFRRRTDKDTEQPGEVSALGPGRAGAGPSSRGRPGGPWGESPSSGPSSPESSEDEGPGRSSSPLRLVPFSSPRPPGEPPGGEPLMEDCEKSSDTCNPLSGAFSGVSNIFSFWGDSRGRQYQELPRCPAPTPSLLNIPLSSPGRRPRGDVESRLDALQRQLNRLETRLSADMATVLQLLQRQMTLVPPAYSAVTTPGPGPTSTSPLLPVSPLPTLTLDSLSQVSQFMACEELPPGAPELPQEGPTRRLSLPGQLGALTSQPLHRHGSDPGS
Below, each entry is listed with its recorded IC50.
Respond numerically; units are µM and should not be typed.

Example results:
[[record]]
compound = "COc1ccc2nccc(CCN3CCC(NCc4cc(F)c(Cl)c(F)c4)CC3)c2n1 [Compound 3]"
assayed_target = "hERG (Homo sapiens)"
quantity = "IC50"
result_number = 0.436

[[record]]
compound = "COc1ccc2nccc(CCN3CCC(NCc4ccc(I)c(F)c4)CC3)c2n1 [Compound 2]"
assayed_target = "hERG (Homo sapiens)"
quantity = "IC50"
result_number = 0.243


Kindly consider the entry below.
Input: Give IC50 for COc1ccc2nccc(CCN3CCC(NCc4ccc(Br)c(F)c4)CC3)c2n1 [Compound 1]
Output: 0.455

---

- assayed-target: M. tuberculosis DNA gyrase (Mycobacterium tuberculosis)
- Construct: purchased Inspiralis (Norwich, UK)
- protocol-description: biochemical
- run-conditions: M. tuberculosis DNA gyrase supercoiling, 100 nM compound
Tick t if inhibition at 0.1 µM is 20% or greater. Tick f if inhibition at 0.1 µM is less than 20%.

Some solved cases for reference:
[[record]]
compound = "COc1ccc2nccc(CCN3CCC(NCc4ccc(F)cc4)CC3)c2n1"
group = "f"

[[record]]
compound = "COc1ccc2nccc(OCC3CCC(NCc4cc(F)c(Cl)c(F)c4)CC3)c2n1 (centres unmarked)"
group = "t"

[[record]]
compound = "COc1ccc2nccc(CCN3CCC(NCc4ccc(OC(F)F)c(OC)c4)CC3)c2n1"
group = "f"

[[record]]
compound = "COc1ccc2nccc(CCN3CCC(NCc4ccccc4)CC3)c2n1"
group = "f"

[[record]]
compound = "COc1ccc2nccc(CCN3CCC(NCc4ccc(Cl)cc4)CC3)c2n1"
group = "t"


Input: Is inhibition at 0.1 µM for COc1ccc2nccc(C(O)CC3CCC(NCc4cc(F)c(Br)c(F)c4)CC3)c2n1 (centres unmarked) at or above 20%?
Output: t

Input: Is inhibition at 0.1 µM for COc1ccc2nccc(OCC3CCC(NCc4cc(F)c(Br)c(F)c4)CC3)c2n1 (centres unmarked) at or above 20%?
Output: t

Input: Is inhibition at 0.1 µM for COc1ccc2nccc(CCN3CCC(NCc4cc(F)c(Cl)c(F)c4)CC3)c2n1 at or above 20%?
Output: t

Input: Is inhibition at 0.1 µM for COc1ccc2nccc(OCC3CCC(NCc4ccc(Cl)cc4)CO3)c2n1 (centres unmarked) at or above 20%?
Output: f

Input: Is inhibition at 0.1 µM for COc1ccc2nccc(OCC3CCC(NCc4ccc(I)cc4)CO3)c2n1 (centres unmarked) at or above 20%?
Output: f

Input: Is inhibition at 0.1 µM for COc1ccc(CNC2CCN(CCc3ccnc4ccc(OC)nc34)CC2)cn1 at or above 20%?
Output: f

Input: Is inhibition at 0.1 µM for COc1ccc2nccc(OCC3CCC(NCc4ccc(I)c(F)c4)CC3)c2n1 (centres unmarked) at or above 20%?
Output: t

Input: Is inhibition at 0.1 µM for COc1ccc2nccc(OCC3CCC(NCc4cc(F)c(Br)c(F)c4)CO3)c2n1 (centres unmarked) at or above 20%?
Output: f

Input: Is inhibition at 0.1 µM for COc1ccc2nccc(OCC3CCC(NCc4ccc(Br)cc4)CC3)c2n1 (centres unmarked) at or above 20%?
Output: f

Input: Is inhibition at 0.1 µM for C=CCn1cc(CNC2CCN(CCc3ccnc4ccc(OC)nc34)CC2)cn1 at or above 20%?
Output: f

Input: Is inhibition at 0.1 µM for COc1ccc2nccc(CCN3CCC(NCc4ccc(Br)c(F)c4)CC3)c2n1 at or above 20%?
Output: t

Input: Is inhibition at 0.1 µM for COc1ccc2nccc(CCN3CCC(NCc4ccc(OC(F)F)c(O)c4)CC3)c2n1 at or above 20%?
Output: f

Input: Is inhibition at 0.1 µM for COc1ccc2nccc(CCN3CCC(NCc4cc(F)c(Br)cc4F)CC3)c2n1 at or above 20%?
Output: t

Input: Is inhibition at 0.1 µM for COc1ccc2nccc(CCN3CCC(NCc4cc(F)c(Br)c(F)c4)CC3)c2n1 at or above 20%?
Output: t

Input: Is inhibition at 0.1 µM for COc1ccc2nccc(CCN3CCC(NCc4ccc(Cl)c(F)c4)CC3)c2n1 at or above 20%?
Output: t

Input: Is inhibition at 0.1 µM for COc1ccc2nccc(CCN3CCC(NCc4ccc(I)c(F)c4)CC3)c2n1 at or above 20%?
Output: t

Input: Is inhibition at 0.1 µM for COc1ccc2nccc(CCN3CCC(NCc4ccc(Br)c(F)c4F)CC3)c2n1 at or above 20%?
Output: t

Input: Is inhibition at 0.1 µM for COc1ccc2nccc(CCN3CCC(NCc4ccc(C(F)(F)F)nc4)CC3)c2n1 at or above 20%?
Output: t

Input: Is inhibition at 0.1 µM for COc1ccc2nccc(OCC3CCC(NCc4ccc(Br)cc4)CO3)c2n1 (centres unmarked) at or above 20%?
Output: f

Input: Is inhibition at 0.1 µM for COc1ccc2nccc(CCN3CCC(NCc4ccc(I)c(F)c4F)CC3)c2n1 at or above 20%?
Output: f
